Source listed as patent US9212205B2.

Biological target: (CUG) repeat RNA SEQ ID NO:7
Assay: Filter binding assay (FBA), SEQ ID NO:7
Details: FBA, SEQ ID NO: 7 + 20 x tRNA; read-out: KD
Method: A filter binding assay system was utilized to provide a rapid initial assessment of binding affinity. All binding studies were performed in PBS pH 7.2+1 mM MgCl2 at 22° C. Various concentrations of small molecules were incubated with 10 nM FAM-labeled RNA in a total volume of 50 μl for 20 minutes. […] Densitometric analysis of the ratio of labeled RNA on the nitrocellulose to nylon filters allows quantification of binding (FIG. 15A). […]
OBSERVABLE: pKd
Please note pKd is a logarithmic value: minus log10 of concentration in mol/L. Answer with that number alone.

Illustrative cases are given below, each with its answer.
CCc1nc2ccccc2cc1C(=O)N1CCC[C@H]1C(=O)N[C@@H](CSSC[C@H](NC(=O)[C@@H]1CCCN1C(=O)c1cc2ccccc2nc1CC)C(=O)N[C@@H](CCCCN)C(=O)NCCCN)C(=O)N[C@@H](CCCCN)C(=O)NCCCN [dimer 9-9]	4.74
NCCCC[C@H](NC(=O)[C@H](CSSC[C@H](NC(=O)[C@@H]1CCCN1C(=O)c1ccc2c(c1)OCO2)C(=O)N[C@@H](CCCCN)C(=O)NCCCN)NC(=O)[C@@H]1CCCN1C(=O)c1ccc2c(c1)OCO2)C(=O)NCCCN [dimer 8-8]	4.85
CCc1nc2ccccc2cc1C(=O)N1CCC[C@H]1C(=O)N[C@@H](CSSC[C@H](NC(=O)[C@@H]1CCCN1C(=O)c1ccc2c(c1)OCO2)C(=O)N[C@@H](CCCCN)C(=O)NCCCN)C(=O)N[C@@H](CCCCN)C(=O)NCCCN [dimer 8-9]	5.02

Now let's try a different one.
Requested read-out pKd, target or system (CUG) repeat RNA SEQ ID NO:7, entry CCc1nc2ccccc2cc1C(=O)N[C@@H](CC(N)=O)C(=O)N[C@@H](CSSC[C@H](NC(=O)[C@@H]1CCCN1C(=O)c1cc2ccccc2nc1CC)C(=O)N[C@@H](CCCCN)C(=O)NCCCN)C(=O)N[C@@H](CCCCN)C(=O)NCCCN [dimer 7-9]
5.00

====

Target: HIV-1 frameshift-inducing RNA stem-loop (SEQ ID NO:1)
Assay: Fluorescence titration of Cy-3 labeled HIV-1 RNA stem-loop
Type: binding
Settings: fluorescence titration, stem-loop 4 × 10^−7 M, PBS buffer, 25° C.; read-out: Binding Affinity (Kd)
OBSERVABLE: Kd (nM)
Answer format: numeric, nM implied, no suffix.

Solved entries:
CCc1nc2ccccc2cc1C(=O)N[C@@H](CSSC[C@H](NC(=O)c1cc2ccccc2nc1CC)C(=O)N1CCC[C@H]1C(=O)N[C@@H](Cc1ccccc1)C(=O)NCCCN)C(=O)N1CCC[C@H]1C(=O)N[C@@H](Cc1ccccc1)C(=O)NCCCN [dimer 1-1]	350
C=CC[C@H](NC(=O)c1cc2ccccc2nc1CC)C(=O)N1CCC[C@H]1C(=O)N[C@@H](Cc1ccccc1)C(=O)NCCCN [monomer 5]	370
CCc1nc2ccccc2cc1C(=O)N[C@@H](C/C=C/C[C@H](NC(=O)c1cc2ccccc2nc1CC)C(=O)N1CCC[C@H]1C(=O)N[C@@H](Cc1ccccc1)C(=O)NCCCN)C(=O)N1CCC[C@H]1C(=O)N[C@@H](Cc1ccccc1)C(=O)NCCCN [dimer 5-5 E]	410

Consider the additional molecule presented here.
Suppose we examine the molecule CCc1nc2ccccc2cc1C(=O)N[C@@H](C/C=C\C[C@H](NC(=O)c1cc2ccccc2nc1CC)C(=O)N1CCC[C@H]1C(=O)N[C@@H](Cc1ccccc1)C(=O)NCCCN)C(=O)N1CCC[C@H]1C(=O)N[C@@H](Cc1ccccc1)C(=O)NCCCN [dimer 5-5 Z] ; what Kd value has been reported?
240

====

Target: (CUG) repeat RNA SEQ ID NO:7
Assay: Filter binding assay (FBA), SEQ ID NO:7
Conditions: FBA, SEQ ID NO: 7; read-out: KD
OBSERVABLE: pKd
pKd field: float, defined as -log10 of concentration (mol/L).

Example results:
CCc1nc2ccccc2cc1C(=O)N1CCC[C@H]1C(=O)N[C@@H](CSSC[C@H](NC(=O)[C@@H]1CCCN1C(=O)c1ccc2c(c1)OCO2)C(=O)N[C@@H](CCCCN)C(=O)NCCCN)C(=O)N[C@@H](CCCCN)C(=O)NCCCN	5.39
CCc1nc2ccccc2cc1C(=O)N[C@@H](CC(N)=O)C(=O)N[C@@H](CSSC[C@H](NC(=O)[C@@H]1CCCN1C(=O)c1cc2ccccc2nc1CC)C(=O)N[C@@H](CCCCN)C(=O)NCCCN)C(=O)N[C@@H](CCCCN)C(=O)NCCCN	5.35
CCc1nc2ccccc2cc1C(=O)N1CCC[C@H]1C(=O)N[C@@H](CSSC[C@H](NC(=O)[C@@H]1CCCN1C(=O)c1cc2ccccc2nc1CC)C(=O)N[C@@H](CCCCN)C(=O)NCCCN)C(=O)N[C@@H](CCCCN)C(=O)NCCCN	5.17

# next compound below
Test system (CUG) repeat RNA SEQ ID NO:7; read-out pKd; what value for NCCCC[C@H](NC(=O)[C@H](CSSC[C@H](NC(=O)[C@@H]1CCCN1C(=O)c1ccc2c(c1)OCO2)C(=O)N[C@@H](CCCCN)C(=O)NCCCN)NC(=O)[C@@H]1CCCN1C(=O)c1ccc2c(c1)OCO2)C(=O)NCCCN ?
5.27

====

Collected Kd values appear next to each entry.
Biological target: (CUG) repeat RNA SEQ ID NO:7
Experiment: Fluorescence titration (FT), SEQ ID NO:7
Format: binding
Conditions: SEQ ID NO: 7
Numbers only here, please. The scale is µM.

The examples below pair each entry with its known result.
CCc1nc2ccccc2cc1C(=O)N1CCC[C@H]1C(=O)N[C@@H](CSSC[C@H](NC(=O)[C@@H]1CCCN1C(=O)c1ccc2c(c1)OCO2)C(=O)N[C@@H](CCCCN)C(=O)NCCCN)C(=O)N[C@@H](CCCCN)C(=O)NCCCN	2.1
CCc1nc2ccccc2cc1C(=O)N[C@@H](CC(N)=O)C(=O)N[C@@H](CSSC[C@H](NC(=O)[C@@H]1CCCN1C(=O)c1cc2ccccc2nc1CC)C(=O)N[C@@H](CCCCN)C(=O)NCCCN)C(=O)N[C@@H](CCCCN)C(=O)NCCCN	2.1
CCc1nc2ccccc2cc1C(=O)N1CCC[C@H]1C(=O)N[C@@H](CSSC[C@H](NC(=O)[C@@H]1CCCN1C(=O)c1cc2ccccc2nc1CC)C(=O)N[C@@H](CCCCN)C(=O)NCCCN)C(=O)N[C@@H](CCCCN)C(=O)NCCCN	2.2

Attention now shifts to the item below.
Which Kd is listed for NCCCC[C@H](NC(=O)[C@H](CSSC[C@H](NC(=O)[C@@H]1CCCN1C(=O)c1ccc2c(c1)OCO2)C(=O)N[C@@H](CCCCN)C(=O)NCCCN)NC(=O)[C@@H]1CCCN1C(=O)c1ccc2c(c1)OCO2)C(=O)NCCCN ?
1.4
